These data points were gathered from patent US9221756B2.

Molecular target: pneumolysin (Streptococcus pneumoniae serotype 2, UniProt Q04IN8)
Sequence (Q04IN8 whole entry): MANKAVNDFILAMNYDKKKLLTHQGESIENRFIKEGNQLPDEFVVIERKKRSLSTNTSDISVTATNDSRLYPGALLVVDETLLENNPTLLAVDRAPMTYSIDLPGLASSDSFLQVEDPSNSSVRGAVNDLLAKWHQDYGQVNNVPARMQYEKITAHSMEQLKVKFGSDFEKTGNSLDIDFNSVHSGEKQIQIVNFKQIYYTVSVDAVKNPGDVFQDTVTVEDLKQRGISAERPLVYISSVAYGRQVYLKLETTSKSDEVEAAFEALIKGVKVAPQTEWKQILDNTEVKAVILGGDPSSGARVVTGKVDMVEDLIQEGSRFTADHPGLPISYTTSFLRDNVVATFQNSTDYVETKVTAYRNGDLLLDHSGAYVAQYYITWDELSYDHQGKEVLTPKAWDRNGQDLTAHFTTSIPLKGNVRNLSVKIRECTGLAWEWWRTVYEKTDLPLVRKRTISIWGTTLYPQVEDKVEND
Assay: Inhibition of the haemolytic activity of pneumolysin (sheep erythrocytes)
Assay type: cell-based
Conditions: IC50, inhibition of pneumolysin-induced haemolysis of sheep erythrocytes; class symbols of Table 1
Entries and their IC50 values follow.

CCOC(=O)c1c(O)c(O)c(C(=O)N(C)C)n1-c1ccc(OCCCN2CCN(C)CC2)cc1 [UL1-103]    < 10 µM
COc1ccc(-n2c(C(=O)N(C)C)c(OCc3ccccc3)c(OCc3ccccc3)c2C(=O)N(C)C)cc1 [UL1-047]    10 to 20 µM
CCOc1ccc(-n2c(C(=O)N(C)C)c(O)c(O)c2C(=O)N(C)C)cc1 [UL1-021]    < 10 µM

Let's switch to this molecule now.
Enter reported IC50 observed with pneumolysin (Streptococcus pneumoniae serotype 2, UniProt Q04IN8) for COc1ccc(-n2c(C(=O)N3CCNCC3)c(O)c(O)c2C(=O)N2CCNCC2)cc1 [UL1-016] < 10 µM

* * *

Entries and their pIC50 values follow.
Molecular target: pneumolysin (Streptococcus pneumoniae serotype 2, UniProt Q04IN8)
Test: Inhibition of the haemolytic activity of pneumolysin (sheep erythrocytes)
Type: cell-based
Settings: IC50, inhibition of pneumolysin-induced haemolysis of sheep erythrocytes; class symbols of Table 1
pIC50: −log10 of the molar value.

# annotated cases, reported pIC50 shown
CCOC(=O)c1c(O)c(O)c(C(=O)OCC)n1-c1ccc(OCCOC)cc1    > 5.00
CCOC(=O)c1c(O)c(O)c(C(=O)N(C)C)n1-c1ccc(OCCOCCOCCOCCOC)cc1    > 5.00
COc1ccc(-n2c(C(=O)N(C)C)c(O)c(O)c2C(=O)N2CCN(C)CC2)cc1    > 5.00

Let's switch to this compound now.
Enter reported pIC50 observed with pneumolysin (Streptococcus pneumoniae serotype 2, UniProt Q04IN8) for CCOC(=O)c1c(O)c(O)c(C(=O)OCC)n1-c1cccc(OC)c1 4.70 to 5.00

* * *

Assay: Conversion of prodrug derivatives to active inhibitors in mouse plasma
Format: in vitro ADME
Settings: 37° C., 10 μM start, prodrug remaining, 60 min
Method: The samples were then analysed by LC-MS/MS to obtain the amount of active compound appearing and prodrug derivative remaining over time. The mouse plasma assay system is considered to be a good model for human behaviour. […] Prodrug derivatives were assessed in the mouse and human plasma stability assay at a concentration of 10 μM. […] (1) The active compound was quantified using a 6 point calibration curve prepared in deactivated mouse and human plasma. […]
Entries and their [ ] (μM) t60 min. Prodrug values follow.
Write the value in µM as a bare number.

# annotated cases, reported [ ] (μM) t60 min. Prodrug shown
COc1ccc(-n2c(C(=O)N(C)C)c(OC(=O)C(C)C)c(OC(=O)C(C)C)c2C(=O)N(C)C)cc1    0
CCOC(=O)c1c(OC(=O)CCOCCOC)c(OC(=O)CCOCCOC)c(C(=O)N(C)C)n1-c1ccc(OC)cc1    0
CCOC(=O)c1c(OC(=O)N2CCN(C)CC2)c(OC(=O)N2CCN(C)CC2)c(C(=O)N(C)C)n1-c1ccc(OC)cc1    5.00

Let's switch to this molecule now.
What does the data say about its [ ] (μM) t60 min. Prodrug? Entry: CCOC(=O)c1c(OP(=O)(OCC)OCC)c(O)c(C(=O)N(C)C)n1-c1ccc(OC)cc1 8.78
